test system: QGY-7703; assay: Cytotoxicity against human QGY7703 cells assessed as reduction in cell viability after 24 hrs by MTT assay; type: functional, cell-based; settings: QGY-7703, 24 h
// returns N unless IC50 is strictly below 6 µM, in which case Y

- COc1cc(/C=C2\CN(S(=O)(=O)c3ccc(NC(C)=O)cc3)C/C(=C\c3cc(OC)cc(OC)c3)C2=O)cc(OC)c1: N
- COc1cc(/C=C2\CN(S(=O)(=O)c3ccc(NC(C)=O)cc3)C/C(=C\c3cc(OC)c(OC)c(OC)c3)C2=O)cc(OC)c1: Y
- COc1cc(/C=C2\CN(S(=O)(=O)c3ccc(NC(C)=O)cc3)C/C(=C\c3cccc([N+](=O)[O-])c3)C2=O)cc(OC)c1OC: Y
- COc1cccc2c1C(=O)c1c(O)c3c(c(O)c1C2=O)C[C@@](O)(C(=O)CO)C[C@@H]3O[C@H]1C[C@H](N)[C@H](O)[C@H](C)O1: Y
- COc1cc(/C=C2\CN(S(=O)(=O)c3ccc(F)cc3)C/C(=C\c3ccc(C#N)cc3)C2=O)cc(OC)c1OC: Y
- COc1cc(/C=C2\CN(S(=O)(=O)c3ccc(NC(C)=O)cc3)C/C(=C\c3ccccc3F)C2=O)cc(OC)c1: Y
- COc1cc(/C=C2\CN(S(=O)(=O)c3ccc(F)cc3)C/C(=C\c3ccccc3F)C2=O)cc(OC)c1OC: N
- CC(=O)Nc1ccc(S(=O)(=O)N2C/C(=C\c3ccc(C#N)cc3)C(=O)/C(=C/c3ccc(C#N)cc3)C2)cc1: Y
- COc1cc(/C=C2\CN(S(=O)(=O)c3ccc(F)cc3)C/C(=C\c3ccccc3F)C2=O)cc(OC)c1: N
- O=C1/C(=C/c2cccc([N+](=O)[O-])c2)CN(S(=O)(=O)c2ccc(F)cc2)C/C1=C\c1cccc([N+](=O)[O-])c1: N
- COc1cc(/C=C2\CN(S(=O)(=O)c3ccc(NC(C)=O)cc3)C/C(=C\c3ccccc3F)C2=O)cc(OC)c1OC: Y
- COc1cc(/C=C2\CN(S(=O)(=O)c3ccc(F)cc3)C/C(=C\c3cc(OC)c(OC)c(OC)c3)C2=O)cc(OC)c1OC: Y
- N#Cc1ccc(/C=C2\CN(S(=O)(=O)c3ccc(F)cc3)C/C(=C\c3ccc(C#N)cc3)C2=O)cc1: N
- CC(=O)Nc1ccc(S(=O)(=O)N2C/C(=C\c3ccc(C#N)cc3)C(=O)/C(=C/c3ccccc3F)C2)cc1: Y
- COc1cc(/C=C2\CN(S(=O)(=O)c3ccc(F)cc3)C/C(=C\c3cccc([N+](=O)[O-])c3)C2=O)cc(OC)c1OC: Y
- COc1cc(/C=C2\CN(S(=O)(=O)c3ccc(F)cc3)C/C(=C\c3cc(OC)c(OC)c(OC)c3)C2=O)cc(OC)c1: Y
- COc1cc(/C=C2\CN(S(=O)(=O)c3ccc(NC(C)=O)cc3)C/C(=C\c3cc(OC)c(OC)c(OC)c3)C2=O)cc(OC)c1OC: Y
- COc1cc(/C=C/C(=O)CC(=O)/C=C/c2ccc(O)c(OC)c2)ccc1O: N
- O=C1/C(=C/c2ccccc2F)CN(S(=O)(=O)c2ccc(F)cc2)C/C1=C\c1ccccc1F: N
- N#Cc1ccc(/C=C2\CN(S(=O)(=O)c3ccc(F)cc3)C/C(=C\c3ccccc3F)C2=O)cc1: N
- COc1cc(/C=C2\CN(S(=O)(=O)c3ccc(F)cc3)C/C(=C\c3cc(OC)cc(OC)c3)C2=O)cc(OC)c1: N
- O=C1/C(=C/c2cccc([N+](=O)[O-])c2)CN(S(=O)(=O)c2ccc(F)cc2)C/C1=C\c1ccccc1F: N
- CC(=O)Nc1ccc(S(=O)(=O)N2C/C(=C\c3cccc([N+](=O)[O-])c3)C(=O)/C(=C/c3ccccc3F)C2)cc1: N
- CC(=O)Nc1ccc(S(=O)(=O)N2C/C(=C\c3ccccc3F)C(=O)/C(=C/c3ccccc3F)C2)cc1: Y
- CC(=O)Nc1ccc(S(=O)(=O)N2C/C(=C\c3cccc([N+](=O)[O-])c3)C(=O)/C(=C/c3cccc([N+](=O)[O-])c3)C2)cc1: N
- COc1cc(/C=C2\CN(S(=O)(=O)c3ccc(NC(C)=O)cc3)C/C(=C\c3ccc(C#N)cc3)C2=O)cc(OC)c1OC: Y
